B1: tRNA (parent)
chain: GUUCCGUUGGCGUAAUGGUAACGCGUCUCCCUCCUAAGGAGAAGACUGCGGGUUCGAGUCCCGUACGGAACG

variants of: B1; experiment: yeast fitness relative to wild type (ratio to wild type); higher = fitter; tRNA-Arg(CCU), competitive growth, 37 C, YPD
This sample holds only a part of the variants without activity.
// reported yeast fitness per item

mutation_name: U8A A42C G52C
yeast fitness: ≤ 0.5

mutation_name: G10A G25A C62U
yeast fitness: ≤ 0.5

mutation_name: U8A C11U A20C
yeast fitness: ≤ 0.5

mutation_name: G10A C31U A42G
yeast fitness: ≤ 0.5

mutation_name: C30G C33G C34U A42U A65C
yeast fitness: ≤ 0.5

mutation_name: C22U C29A A36G A45U
yeast fitness: ≤ 0.5

mutation_name: C31G G51A G68C
yeast fitness: 0.545

mutation_name: C11A G23A U32C U47C
yeast fitness: ≤ 0.5

mutation_name: U13G A40G U47C A69U
yeast fitness: 0.653

mutation_name: U7A A21C A36G G68C
yeast fitness: ≤ 0.5

mutation_name: A20C C49G
yeast fitness: 0.795

mutation_name: C5A C49G
yeast fitness: 0.704

mutation_name: C5A G52C
yeast fitness: 0.567

mutation_name: U19A G41C A70U
yeast fitness: ≤ 0.5

mutation_name: C30A C31A C60U C62G
yeast fitness: ≤ 0.5

mutation_name: C24U G68A A70U
yeast fitness: 0.647
